Reference source for all entries: ChEMBL document CHEMBL1201862

system: HT-29; test: NCI tumour cell line growth inhibition, 48 h
The source made the active and inactive calls. No stated cut-off is given here; in the data, active = GI50 up to about 1.1 µM and inactive = higher.
Provide the reported GI50 of each item.

Consider the reported GI50 for these compounds:
Compound: CC1=CC(=O)/C(=C/NC(=S)Nc2ccccc2)C(=O)O1
GI50: > 100 µM (inactive)
//
Compound: CC1=CC[C@](C)(O)[C@@]2(C)CC[C@H]3C(=C(C)C)C(=O)C[C@]3(C)C[C@H]12
GI50: 24.8 µM (inactive)
//
Compound: O=C1C=C[C@@H](COC2OC(CO)C(O)C(O)C2O)O1 (stereo not given in full)
GI50: 5.86 µM (inactive)
//
Compound: COc1cc(/C=C/C(=O)N[C@@H]2C(=O)N3[C@@H]2SC(C)(C)[C@@H]3C(=O)O)cc(OC)c1OC
GI50: > 100 µM (inactive)
//
Compound: CC1=C(C)C2(C#N)C(=O)N3C(=NC(c4ccccc4)NC3c3ccccc3)C2(C#N)C(c2ccccc2)N1 (stereo not given)
GI50: > 100 µM (inactive)

Give GI50 for all compounds that follow.
1. CCCCCCCCCCCC(=O)OCCOCCOCCOCCOCCOCc1ccccc1
2. N=C(N)N/N=C/c1c(-c2ccccc2)nc2ccn3c(/C=N/N=C(N)N)c(-c4ccccc4)nc3n12
3. COC(=O)NC1(NC(=O)OC)NC(=O)c2cc(OC)c(OC)c(OC)c2N1
4. O=C(/C=C/c1c(O)ccc2ccccc12)c1cccc(O)c1
5. O=C1C=C(Nc2cc(Cl)ccc2Cl)c2ccccc2C1=O

### Response
["> 100 µM (inactive)", "34.1 µM (inactive)", "36.9 µM (inactive)", "> 100 µM (inactive)", "86.9 µM (inactive)"]

---

Can you tell me GI50 for the items I'm about to list?
system: DMS-114; test: NCI tumour cell line growth inhibition, 48 h
Activity calls are given as the source filed them. Rule as the data show it: active = GI50 up to about 1.1 µM and inactive = higher.

Molecule: COc1ccc(N2C(=O)C3c4[nH]c5ccccc5c4C4CC(C)(C)CC(C)(C)C4C3C2=O)cc1 (stereo unspecified)
GI50: 27.2 µM (inactive)

Would you mind giving GI50 for every molecule in the list below?
1. CCCCCCCCCCCC(=O)OCCOCCOCCOCCOCCOCc1ccccc1
2. COC(=O)C1CC(C(=O)OC)c2nc3cc(C)c(C)cc3nc21 (stereo unspecified)
3. NC(=S)N/N=C/c1nccc2ccccc12
4. COC12C=CC(CC1)c1c(O)ccc(O)c12 (stereo unspecified)
5. O=c1cc(-c2ccccc2)[nH]c2cc(Cl)cc(Cl)c12
6. C/C(=C(/C)c1cc[n+](C)cc1)c1cc[n+](C)cc1
7. COc1cc(O)c2c(c1O)C(=O)c1cc(C)ncc1C2=O

### Response
> 100 µM (inactive)
> 100 µM (inactive)
0.361 µM (active)
47.1 µM (inactive)
26.4 µM (inactive)
16.2 µM (inactive)
18.9 µM (inactive)

Hello, I would appreciate it if you could give GI50 for each entry below.
1. O=C1C(C2=[N+]([O-])c3ccccc3C2=O)=[N+]([O-])c2ccccc21
2. CN(C)C(=S)/N=c1\ssc(=S)n1Cc1ccccc1
3. COc1ccc2nc3ccccc3c(NCCCCCCN(CCCl)CCCl)c2c1

### Response
1: 17.9 µM (inactive); 2: 0.201 µM (active); 3: 0.155 µM (active)
